Target: SARS-CoV-2 3CL^pro (Severe acute respiratory syndrome coronavirus 2, UniProt P0DTD1)
Test: biochemical
Condition Notes: IC50 60 (min)
Measurement Type: pIC50
On this scale, pIC50 is minus log10 of a concentration expressed in M (mol/L).

# get_value(readout='pIC50', item= O=C1c2c(O)cc(O)cc2OC(c2ccc(O)c(O)c2)C1O (stereo not shown) ) 4.14

###

Target: SARS-CoV-2 3CL^pro (Severe acute respiratory syndrome coronavirus 2)
Test: biochemical
Condition Notes: IC50 0.5 (min)
Measurement Type: IC50

# get_value(readout='IC50', item= O=C1c2c(O)cc(O)cc2OC(c2ccc(O)c(O)c2)C1O (stereo not shown) ) > 200 µM

Taken from paper PMC8322037.
